- tested_on: T1, hIL-7R (Example 11) (human, UniProt P16871 21-239)
- T1 construct: Called full length hIL-7R for the mRNA display and hIL-7R for the Biacore runs; also called full length hIL-7R; human IL-7R
- T1 chain: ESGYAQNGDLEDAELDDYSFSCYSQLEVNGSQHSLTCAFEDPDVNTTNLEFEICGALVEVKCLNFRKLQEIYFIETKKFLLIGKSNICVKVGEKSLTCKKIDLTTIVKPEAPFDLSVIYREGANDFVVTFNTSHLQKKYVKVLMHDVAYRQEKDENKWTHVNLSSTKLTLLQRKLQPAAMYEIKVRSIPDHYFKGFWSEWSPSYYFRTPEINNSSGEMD
- method_summary: SPR (Biacore), ratio KD of parent 18B1 to KD of variant
- Description: Affinity (KD) of each variant binding to hIL-7R was obtained using this approach, and compared against the enrichment ratio (ER) obtained through NGS heat map analysis for the same variant.
measured_endpoint: KD Relative to 18B1
In your answer, state the number alone without any accompanying words.

INSERT INTO results (binder, measured_endpoint, val) VALUES
  ('18B1 LC T97A (antibody, V domains shown, copies: 2 + 2) VH: EVQLVESGGGLVQPGRSLRLSCAASGFTFDDHAMHWVRQAPGKGLEWVSGISWNSRGIGYADSVKGRFTIFRDNAKNSLYLQMNSLRAEDTALYYCAKDEYSRGYYVLDVWGQGTTVTVSS VL: AIQLTQSPSSLSASVGDRVTITCRASQGISSALAWYQQKPGKAPKLLIYDASSLESGVPSRFSGSGSGTDFTLTISSLQPEDFATYYCQQFNSYPLWIAFGQGTRLEIKR', 'KD Relative to 18B1', 1.16),
  ('18B1 LC N92A (antibody, human IgG1, kappa, V domains shown) VH: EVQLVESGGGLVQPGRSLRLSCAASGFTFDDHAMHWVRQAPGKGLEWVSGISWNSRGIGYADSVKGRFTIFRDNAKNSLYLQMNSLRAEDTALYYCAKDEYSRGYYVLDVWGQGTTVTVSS VL: AIQLTQSPSSLSASVGDRVTITCRASQGISSALAWYQQKPGKAPKLLIYDASSLESGVPSRFSGSGSGTDFTLTISSLQPEDFATYYCQQFASYPLWITFGQGTRLEIKR', 'KD Relative to 18B1', 0.63),
  ('18B1 LC R24A (antibody, human IgG1, kappa, V domains shown) VH: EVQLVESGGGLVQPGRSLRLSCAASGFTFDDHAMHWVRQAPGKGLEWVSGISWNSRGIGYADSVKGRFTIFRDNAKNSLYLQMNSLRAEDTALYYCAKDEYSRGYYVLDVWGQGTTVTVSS VL: AIQLTQSPSSLSASVGDRVTITCAASQGISSALAWYQQKPGKAPKLLIYDASSLESGVPSRFSGSGSGTDFTLTISSLQPEDFATYYCQQFNSYPLWITFGQGTRLEIKR', 'KD Relative to 18B1', 1.15);

Next, consider the following binder.
Hello, please tell me recorded KD Relative to 18B1 for this one: 18B1 LC S30A (antibody, human IgG1, kappa, V domains shown) VH: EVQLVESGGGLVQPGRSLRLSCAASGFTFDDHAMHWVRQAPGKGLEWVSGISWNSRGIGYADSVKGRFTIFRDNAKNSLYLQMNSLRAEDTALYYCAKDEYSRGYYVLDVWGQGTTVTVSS VL: AIQLTQSPSSLSASVGDRVTITCRASQGIASALAWYQQKPGKAPKLLIYDASSLESGVPSRFSGSGSGTDFTLTISSLQPEDFATYYCQQFNSYPLWITFGQGTRLEIKR
0.88
